System: Staphylococcus aureus
Test: Antibacterial activity against methicillin-resistant Staphylococcus aureus SK1 by two-fold broth dilution method
Assay type: functional

- MOLECULE: "COc1c(CC=C(C)C)c(O)c2c(=O)c3ccc(O)c(O)c3oc2c1CC=C(C)C [DULXANTHONE B]"
  MIC (µg/mL): 16
- MOLECULE: "C=C(C)CC[C@@H]1C[C@@]2(CC=C(C)C)C(=O)[C@]3(CC=C(C)C)C[C@@]1(C)C2(O)/C(=C(/O)c1ccccc1)C3=O (relative stereo)"
  MIC (µg/mL): 64
- MOLECULE: "C=CC(C)(C)c1c2c(c(O)c3c(=O)c4ccc(O)c(OC)c4oc13)C=CC(C)(C)O2"
  MIC (µg/mL): 4
- MOLECULE: "C=C(C)CC[C@@H]1C[C@]2(CC=C(C)C)C(=O)/C(=C(\\O)c3ccccc3)C(=O)[C@]3(CC=C(C)C)C[C@@]1(C)O[C@@]32O [XEROPHENONE A]"
  MIC (µg/mL): 128
- MOLECULE: "COc1c(CC=C(C)C)c(O)c2c(=O)c3ccc(O)c(OC)c3oc2c1CC=C(C)C [DOITUNGGARCINONE C]"
  MIC (µg/mL): 128
- MOLECULE: "C=CC(C)(C)c1c2c(c(O)c3c(=O)c4ccc(O)c(O)c4oc13)C=CC(C)(C)O2 [MACLURAXANTHONE]"
  MIC (µg/mL): 4
